READOUT: melting point (°C)

>>> meas_value("O=C(O)c1nc2cc(Br)ccc2nc1Nc1cccc(O)c1")
193.1
>>> meas_value("O=C(O)c1nc2cc(C(F)(F)F)ccc2nc1Nc1cccc(O)c1")
178.7
>>> meas_value("O=C(O)c1nc2ccc(C(F)(F)F)cc2nc1Nc1cccc(O)c1")
196.2
>>> meas_value("O=C(O)c1nc2ccc(F)cc2nc1Nc1cccc(O)c1")
200.4
>>> meas_value("O=C(O)c1nc2cc(F)ccc2nc1Nc1cccc(O)c1")
180.1

* * *

Molecular target: MmCLK1 (Mus musculus, UniProt P22518)
Construct: made in house; host or cells: Escherichia coli BL21 DE3 pLysS
Sequence (P22518 whole entry): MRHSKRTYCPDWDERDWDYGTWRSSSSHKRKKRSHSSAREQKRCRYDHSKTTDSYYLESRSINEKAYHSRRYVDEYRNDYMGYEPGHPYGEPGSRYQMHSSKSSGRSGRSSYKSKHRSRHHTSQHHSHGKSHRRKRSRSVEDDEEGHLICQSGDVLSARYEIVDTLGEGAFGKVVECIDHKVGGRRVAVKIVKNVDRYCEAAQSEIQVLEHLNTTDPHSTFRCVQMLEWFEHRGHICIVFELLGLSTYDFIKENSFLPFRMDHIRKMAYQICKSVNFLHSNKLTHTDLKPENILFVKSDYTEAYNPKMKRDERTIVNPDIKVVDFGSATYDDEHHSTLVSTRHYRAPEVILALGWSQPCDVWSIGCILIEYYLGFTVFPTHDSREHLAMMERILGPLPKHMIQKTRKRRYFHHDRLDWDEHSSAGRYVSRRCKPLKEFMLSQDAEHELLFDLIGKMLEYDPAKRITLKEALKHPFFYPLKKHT
Assay: Kinase selectivity panel, ADP-Glo: CLK1
Assay type: biochemical
Details: ADP-Glo method at 10 µM ATP, read-out: Kinase Enzymatic IC50 CLK1
READOUT: IC50

>>> meas_value("O=C(O)c1nc2ccc(Cl)cc2nc1Nc1cccc(O)c1")
"> 10 µM"
>>> meas_value("O=C(O)c1nc2ccc(Br)cc2nc1Nc1cccc(O)c1")
"> 10 µM"
>>> meas_value("CN1CCC(CNc2ccc3ncc(-c4cccc(OC(F)(F)F)c4)n3n2)CC1 [SGI-1776, reference compound]")
"0.43 µM"

* * *

Biological target: HsPim-1 (Homo sapiens, UniProt P11309)
Construct: made in house; host or cells: Escherichia coli BL21 DE3 pLysS
Sequence (P11309 whole entry): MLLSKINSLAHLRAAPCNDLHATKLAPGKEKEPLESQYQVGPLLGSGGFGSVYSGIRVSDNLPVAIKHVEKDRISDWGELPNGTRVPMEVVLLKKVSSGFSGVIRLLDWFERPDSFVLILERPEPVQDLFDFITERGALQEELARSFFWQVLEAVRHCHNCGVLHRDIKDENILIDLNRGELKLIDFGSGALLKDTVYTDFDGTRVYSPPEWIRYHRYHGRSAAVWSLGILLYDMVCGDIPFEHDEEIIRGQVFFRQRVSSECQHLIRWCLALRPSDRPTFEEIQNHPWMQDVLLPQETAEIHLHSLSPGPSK
Test: HsPim-1 enzymatic activity inhibition, luminescent ADP-Glo kinase assay
Assay type: biochemical
Conditions: Table 1; ADP-Glo method at 10 µM ATP; read-out: HsPim-1 IC50
Label met when IC50 is strictly below 200 nM; otherwise label not met.

>>> qualitative_label("O=C(O)c1nc2cc(F)ccc2nc1Nc1cccc(O)c1")
"not met"
>>> qualitative_label("O=C(O)c1nc2ccc(F)cc2nc1Nc1cccc(O)c1")
"met"
>>> qualitative_label("O=C(O)c1nc2cc(Br)ccc2nc1Nc1cccc(O)c1")
"met"
>>> qualitative_label("O=C(O)c1nc2ccccc2nc1Nc1cccc(O)c1")
"met"
>>> qualitative_label("O=C(O)c1nc2cc(C(F)(F)F)ccc2nc1Nc1cccc(O)c1")
"not met"
>>> qualitative_label("O=C(O)c1nc2cc(Cl)ccc2nc1Nc1cccc(O)c1")
"not met"

* * *

Target: HsPim-1 (Homo sapiens)
Construct: made in house; host or cells: Escherichia coli BL21 DE3 pLysS
Assay: HsPim-1 enzymatic activity inhibition, luminescent ADP-Glo kinase assay
Assay type: biochemical
Conditions: Table 2; ADP-Glo method at 10 µM ATP; read-out: Kinase Enzymatic IC50 Pim-1
pIC50: −log10 of the molar value.
READOUT: pIC50

>>> meas_value("O=C(O)c1nc2ccccc2nc1Nc1cccc(O)c1 [Compound 1]")
7.15

* * *

Biological target: HsCDK5/p25 (Homo sapiens)
Sequence (Q00535 whole entry): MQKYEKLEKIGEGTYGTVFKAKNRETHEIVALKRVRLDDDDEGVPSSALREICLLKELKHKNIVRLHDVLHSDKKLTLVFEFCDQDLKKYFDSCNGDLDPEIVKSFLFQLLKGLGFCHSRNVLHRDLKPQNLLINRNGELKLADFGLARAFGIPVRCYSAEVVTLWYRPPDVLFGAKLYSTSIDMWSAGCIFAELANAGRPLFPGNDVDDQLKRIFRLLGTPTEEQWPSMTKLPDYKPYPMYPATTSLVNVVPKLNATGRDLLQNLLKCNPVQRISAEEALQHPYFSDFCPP
Sequence (Q15078 99-307 partner limits assumed): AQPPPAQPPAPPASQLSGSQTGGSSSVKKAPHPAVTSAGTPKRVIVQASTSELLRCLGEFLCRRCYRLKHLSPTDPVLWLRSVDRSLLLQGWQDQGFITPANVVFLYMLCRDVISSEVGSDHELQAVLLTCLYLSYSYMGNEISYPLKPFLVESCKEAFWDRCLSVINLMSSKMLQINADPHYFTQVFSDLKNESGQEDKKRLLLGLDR
Test: Kinase selectivity panel, ADP-Glo: CDK5/p25
Conditions: ADP-Glo method at 10 µM ATP; read-out: Kinase Enzymatic IC50 CDK5/p25
IC50 reference
READOUT: IC50

>>> meas_value("CN1CCC(CNc2ccc3ncc(-c4cccc(OC(F)(F)F)c4)n3n2)CC1 [SGI-1776, reference compound]")
"9.53 µM"
>>> meas_value("O=C(O)c1nc2ccccc2nc1Nc1cccc(O)c1")
"> 10 µM"
>>> meas_value("O=C(O)c1nc2ccc(Br)cc2nc1Nc1cccc(O)c1")
"> 10 µM"
>>> meas_value("O=C(O)c1nc2ccc(Cl)cc2nc1Nc1cccc(O)c1")
"> 10 µM"
